Values compiled from patent US20200397796A1.

measurementDescription: GLP 28-day repeat oral dose toxicity and toxicokinetics, monkey
Assay type: in vivo
appliedConditions: in vivo, po; Monkey Female; 2 mg/kg/day, daily dosing for 28 days
From the text: Reference source not found.6.
experimentalReadout: Cmax (ng/mL)
Numbers only, in ng/mL.

// recorded Cmax for N#Cc1cnc(Nc2cc(NCC3CNCCO3)c(C(F)(F)F)cn2)cn1 (stereo not shown) : 519

* * *

measurementDescription: Phase 1 clinical trial, SRA737 monotherapy dose escalation
Format: in vivo, human
appliedConditions: human, in vivo, 40 mg, Cmax
Protocol: A Phase 1 clinical trial was conducted in ‘all comers,’ i.e. no genetic selection was performed, to establish safety, tolerability and pharmacokinetics (“Dose Escalation Phase”). […] Cmin was calculated at 1000 mg QD (411 ng/mL) and exceeded that determined in preclinical models to be effective. […]
experimentalReadout: Cmax (ng/mL)
Give bare numbers, in ng/mL.

// recorded Cmax for N#Cc1cnc(Nc2cc(NCC3CNCCO3)c(C(F)(F)F)cn2)cn1 (stereo not shown) : 95

* * *

measurementDescription: Plasma protein binding, ultracentrifugation, monkey
Format: in vitro ADME
appliedConditions: plasma; monkey; summary of 1 and 10 μM
experimentalReadout: fraction unbound
Answers are plain numbers.

// recorded fraction unbound for N#Cc1cnc(Nc2cc(NCC3CNCCO3)c(C(F)(F)F)cn2)cn1 (stereo not shown) : 0.13

* * *

measurementDescription: GLP 28-day repeat oral dose toxicity and toxicokinetics, monkey
Type: in vivo
appliedConditions: in vivo, po; Monkey Female; 20 mg/kg/day (NOAEL), daily dosing for 28 days
experimentalReadout: half-life (h)
Give bare numbers, in h.

// recorded half-life for N#Cc1cnc(Nc2cc(NCC3CNCCO3)c(C(F)(F)F)cn2)cn1 (stereo not shown) : 6

* * *

targetOrTestSystem: CYP 2C19 (Homo sapiens, UniProt P33261)
Sequence (P33261 whole entry): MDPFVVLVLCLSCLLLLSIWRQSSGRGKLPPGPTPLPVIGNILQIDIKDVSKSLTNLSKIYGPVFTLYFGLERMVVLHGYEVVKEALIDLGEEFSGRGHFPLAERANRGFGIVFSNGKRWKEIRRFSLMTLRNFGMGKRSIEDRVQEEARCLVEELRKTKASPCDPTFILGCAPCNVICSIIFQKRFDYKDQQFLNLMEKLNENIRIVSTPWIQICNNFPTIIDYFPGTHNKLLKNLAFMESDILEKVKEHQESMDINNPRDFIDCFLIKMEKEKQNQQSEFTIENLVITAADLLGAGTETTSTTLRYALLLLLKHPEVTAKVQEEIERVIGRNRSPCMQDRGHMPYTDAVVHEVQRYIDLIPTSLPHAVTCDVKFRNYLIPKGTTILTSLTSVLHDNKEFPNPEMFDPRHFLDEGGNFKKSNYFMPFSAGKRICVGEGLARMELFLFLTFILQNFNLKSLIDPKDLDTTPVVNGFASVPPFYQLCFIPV
experimentalReadout: IC50

// recorded IC50 for N#Cc1cnc(Nc2cc(NCC3CNCCO3)c(C(F)(F)F)cn2)cn1 (stereo not shown) : 10 to 50 µM

* * *

measurementDescription: Phase 1 clinical trial, SRA737 in combination with gemcitabine dose escalation
Assay type: in vivo, human
appliedConditions: human, plasma, oral, 300 mg; Day −7; mean, n = 7; read-out: AUC0-12
experimentalReadout: AUC(0-t) (ng·h/mL)
Answers are plain numbers, in ng·h/mL.

// recorded AUC(0-t) for N#Cc1cnc(Nc2cc(NCC3CNCCO3)c(C(F)(F)F)cn2)cn1 (stereo not shown) : 4530

* * *

measurementDescription: Phase 1 clinical trial, SRA737 in combination with gemcitabine dose escalation
Format: in vivo, human
appliedConditions: human, plasma, oral, 300 mg; Day −7; mean, n = 7
experimentalReadout: Tmax
For clarity, give the value followed by its unit.

// recorded Tmax for N#Cc1cnc(Nc2cc(NCC3CNCCO3)c(C(F)(F)F)cn2)cn1 (stereo not shown) [SRA737] : 2.4 h

* * *

measurementDescription: GLP 28-day repeat oral dose toxicity and toxicokinetics, mouse
appliedConditions: female, mouse, in vivo, po, 40 mg/kg/day
experimentalReadout: half-life
For clarity, give the value followed by its unit.

// recorded half-life for N#Cc1cnc(Nc2cc(NCC3CNCCO3)c(C(F)(F)F)cn2)cn1 (stereo not shown) : 5.09 h
